assay: absorption spectrum (maximum absorption wavelength, molar extinction coefficient); type: physicochemical
Entries and their molar extinction coefficient

query: Using the record for COCCOCCOCCOCCOCCOCCOC(=O)C1CCCC(Nc2c(O)c3c(=O)cc(OC)c4c5c(OC)cc(=O)c6c(NC7CCCC(C(=O)OCCOCCOCCOCCOCCOCCOC)C7)c(OC)c7c(c(c2C=C(C)C7C(C)=O)c34)c65)C1 (centres unmarked) [HB-15b-PEG6] , report its molar extinction coefficient.
result: 30,000 M^−1cm^−1

Turning to the following compound.
query: Consider the compound shown here: COc1c(O)c2c(=O)cc(OC)c3c4c(OC)cc(=O)c5c(NC(C(=O)O)C(C)C)c(NC(C(=O)O)C(C)C)c6c(c(c1C(C(C)=O)C(C)=C6)c23)c54 (centres unmarked) [HB-22a] What is its recorded molar extinction coefficient?
result: 21,000 M^−1cm^−1

====

experiment: absorption spectrum (maximum absorption wavelength, molar extinction coefficient); format: physicochemical
measured.metric: molar extinction coefficient

For orientation, consider the following solved cases.
query: May I ask what molar extinction coefficient has been recorded for COc1c2c3c4c(c(NCCC5CCC(O)CC5)c(=O)c5c(NCCC6CCC(O)CC6)cc(OC)c(c6c(OC)cc(O)c(c1=O)c63)c54)C=C(C)C2C(C)=O (centres unmarked) [HB-18c] ?
result: 23,500 M^−1cm^−1

query: Can you handle COc1c(O)c2c(=O)cc(OC)c3c4c(OC)cc(=O)c5c(NC(CO)C(=O)O)c(NC(CO)C(=O)O)c6c(c(c1C(C(C)=O)C(C)=C6)c23)c54 (centres unmarked) [HB-23a] next?
result: 21,500 M^−1cm^−1

---
query: Fill in the blank: the reported molar extinction coefficient of COCCOCCOCCOCCOCCOCCOCCOCCOCCOCCOCCOCCOCCOCCOCCOCCOC(=O)C1CCC(CNc2c3c4c5c(c(OC)c(=O)c6c(NCC7CCC(C(=O)OCCOCCOCCOCCOCCOCCOCCOCCOCCOCCOCCOCCOCCOCCOCCOCCOC)CC7)cc(OC)c(c7c(OC)cc(O)c(c2=O)c74)c65)CC(C)=C3)CC1 (centres unmarked) [HC-13d-PEG16] is ____.
result: 31,500 M^−1cm^−1

query: Now try COc1c2c3c4c(c(NC(CC(=O)O)C(=O)O)c(=O)c5c(O)cc(OC)c(c6c(OC)cc(NC(CC(=O)O)C(=O)O)c(c1=O)c63)c54)C=C(C)C2C(C)=O (centres unmarked) [HB-27d] .
result: 21,500 M^−1cm^−1

query: Proceed to COc1c2c3c4c(c(NCc5ccccn5)c(=O)c5c(O)cc(OC)c(c6c(OC)cc(NCc7ccccn7)c(c1=O)c63)c54)C=C(C)C2C(C)=O (centres unmarked) [HB-38d]
result: 18,500 M^−1cm^−1

====

assay: absorption spectrum (maximum absorption wavelength, molar extinction coefficient); assay type: physicochemical
measured.metric: molar extinction coefficient

Sample records with molar extinction coefficient:
query: Looking for the measured molar extinction coefficient of CCNc1c2c3c4c(c(OC)c(=O)c5c(O)cc(OC)c(c6c(OC)c(SCCO)c(NC7CCCC7)c(c1=O)c36)c54)C(C(C)=O)C(C)=C2 (centres unmarked) [HB-S-44c] , can you help?
result: 21,000 M^−1cm^−1

query: What would you report for COc1c(O)c2c(=O)cc(OC)c3c4c(OC)cc(=O)c5c(NCCCCCC(=O)O)c(NCCCCCC(=O)O)c6c(c(c1CC(C)=C6)c23)c54 ?
result: 26,500 M^−1cm^−1

query: Same read-out for COCCOCCOCCOCCOC(=O)C1CCC(CNc2c3c4c5c(c(OC)c(=O)c6c(O)cc(OC)c(c7c(OC)cc(NCC8CCC(C(=O)OCCOCCOCCOCCOC)CC8)c(c2=O)c74)c65)C(C(C)=O)C(C)=C3)CC1 (centres unmarked) [HB-13c-PEG4] ?
result: 32,500 M^−1cm^−1

More entries:
query: Param item = COCCOCCN1CCC(CNc2c(NCC3CCN(CCOCCOC)CC3)c3c(=O)cc(OC)c4c5c(OC)cc(=O)c6c(O)c(OC)c7c(c(c2C=C(C)C7C(C)=O)c34)c65)CC1 (centres unmarked) [HB-32a-PEG1] ; retrieve measured molar extinction coefficient.
result: 32,000 M^−1cm^−1

query: Also check COCCOCCOCCOCCOCCOCCOC(=O)CCCNc1c2c3c4c(c(OC)c(=O)c5c(O)cc(OC)c(c6c(OC)cc(NCCCC(=O)OCCOCCOCCOCCOCCOCCOC)c(c1=O)c63)c54)CC(C)=C2
result: 31,500 M^−1cm^−1
